FYI, the data here is from patent US20240010684A1.

Listing of recorded IC50 by entry.
biological target: rat MASP2 (Rattus norvegicus (Rat), UniProt Q9JJS8); test: Biochemical rat MASP2 assay (FRET substrate); conditions: Average IC50; recombinant rat MASP2; read-out: rat MASP2 IC50
Sequence (Q9JJS8 other isoform, or with tags, fused parts or gaps): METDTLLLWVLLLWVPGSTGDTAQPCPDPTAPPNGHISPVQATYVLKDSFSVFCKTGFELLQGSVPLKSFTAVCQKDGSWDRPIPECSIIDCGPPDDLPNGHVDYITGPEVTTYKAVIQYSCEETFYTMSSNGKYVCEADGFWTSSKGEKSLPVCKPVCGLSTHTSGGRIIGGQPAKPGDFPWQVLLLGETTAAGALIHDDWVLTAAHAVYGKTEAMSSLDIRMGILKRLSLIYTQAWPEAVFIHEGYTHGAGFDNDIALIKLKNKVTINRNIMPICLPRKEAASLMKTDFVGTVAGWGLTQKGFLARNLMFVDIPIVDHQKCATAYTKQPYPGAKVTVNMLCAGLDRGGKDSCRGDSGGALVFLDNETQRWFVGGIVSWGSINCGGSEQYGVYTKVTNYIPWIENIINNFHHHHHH
*1 amine or outer side, *2 acyl side, *3 side chain or, on linkers, in order; H or OH if unused. Where a SMILES comes first, the peptide text is derived from it. Bridges are numbered along the chain shown (N, C = ends). [ ]: non-standard residue; d: D form. Oic = O=C(O)[C@@H]1C[C@@H]2CCCC[C@@H]2N1; Adipoyl = O=C(CCCCC(=O)[*:2])[*:1]; tBuAla = CC(C)(C)C[C@H](N)C(=O)O; Pen = CC(C)(S)[C@H](N)C(=O)O; Dap = NC[C@H](N)C(=O)O; Ahx = NCCCCCC(=O)O; Sar = CNCC(=O)O
Give your result in nM as a bare value.

CC[C@H](C)[C@@H]1NC(=O)CNC(=O)CCCCCNC(=O)[C@H](CC(=O)O)NC(=O)[C@@H]2CCCN2C(=O)[C@H]([C@@H](C)CC)NC(=O)[C@H]2NC(=O)[C@H]([C@@H](C)CC)NC(=O)[C@@H]3CCCN3C(=O)[C@@H]3CCCN3C(=O)[C@H](CC(C)(C)C)NC(=O)[C@H](CO)NC(=O)[C@H](CCCNC(=N)N)NC(=O)[C@H](CO)NC(=O)[C@H](CSSC2(C)C)NC1=O [Example 28] (cyclo([Ahx]GICSRS[tBuAla]PPI[Pen]IPD); disulfide 4-12) : 16
CC[C@H](C)[C@@H]1NC(=O)CN(C)C(=O)CCCCCNC(=O)[C@H]([C@@H](C)CC)NC(=O)[C@H]2NC(=O)[C@H]([C@@H](C)CC)NC(=O)[C@@H]3CCCN3C(=O)[C@@H]3CCCN3C(=O)[C@H](CC(C)(C)C)NC(=O)[C@H](CO)NC(=O)[C@H](CCCNC(=N)N)NC(=O)[C@H](CO)NC(=O)[C@H](CSSC2(C)C)NC1=O [Example 64] (cyclo([Ahx][Sar]ICSRS[tBuAla]PPI[Pen]I); disulfide 4-12) : 13
CC[C@H](C)[C@@H]1NC(=O)[C@H](C)NC(=O)CCCCCNC(=O)[C@H]([C@@H](C)CC)NC(=O)[C@H]2NC(=O)[C@H]([C@@H](C)CC)NC(=O)[C@@H]3CCCN3C(=O)[C@@H]3CCCN3C(=O)[C@H](CC(C)(C)C)NC(=O)[C@H](CO)NC(=O)[C@H](CCCNC(=N)N)NC(=O)[C@H](CO)NC(=O)[C@H](CSSC2(C)C)NC1=O [Example 72] (cyclo(AICSRS[tBuAla]PPI[Pen]I[Ahx]); disulfide 3-11) : 14
CC[C@H](C)[C@@H]1NC(=O)CCCCCNC(=O)CC[C@@H](C(N)=O)NC(=O)[C@@H]2CCCN2C(=O)[C@H]([C@@H](C)CC)NC(=O)[C@H]2NC(=O)[C@H]([C@@H](C)CC)NC(=O)[C@@H]3C[C@@H]4CCCC[C@@H]4N3C(=O)[C@@H]3CCCN3C(=O)[C@H](CC(C)C)NC(=O)[C@H](CO)NC(=O)[C@H](CCCNC(=N)N)NC(=O)[C@H](CO)NC(=O)[C@H](CSSC2(C)C)NC1=O [Example 75] ([Ahx]ICSRSLP[Oic]I[Pen]IPE-NH2; disulfide 3-11; lactam N-14) : 1.4
CC[C@H](C)[C@@H]1NC(=O)[C@@H]2CCCN2C(=O)[C@@H]2CCCN2C(=O)[C@H](CC(C)(C)C)NC(=O)[C@H](CO)NC(=O)[C@H](CCCNC(=N)N)NC(=O)[C@H](CO)NC(=O)[C@@H]2CSSC(C)(C)[C@H](NC1=O)C(=O)N[C@@H]([C@@H](C)CC)C(=O)N1CCC[C@H]1C(=O)N1CCC[C@H]1C(=O)N[C@@H]([C@@H](C)CC)C(=O)N2 [Example 58] (cyclo(CSRS[tBuAla]PPI[Pen]IPPI); disulfide 1-9) : 46

Now let's try a different one.
// field: IC50; key: CC[C@H](C)[C@@H]1NC(=O)CCCCC(=O)NC[C@@H](C(N)=O)NC(=O)[C@H](CC(=O)O)NC(=O)[C@@H]2CCCN2C(=O)[C@H]([C@@H](C)CC)NC(=O)[C@H]2NC(=O)[C@H]([C@@H](C)CC)NC(=O)[C@@H]3CCCN3C(=O)[C@@H]3CCCN3C(=O)[C@H](CC(C)(C)C)NC(=O)[C@H](CO)NC(=O)[C@H](CCCNC(=N)N)NC(=O)[C@H](CO)NC(=O)[C@H](CSSC2(C)C)NC1=O [Example 60] (ICSRS[tBuAla]PPI[Pen]IPD[Dap]-NH2; disulfide 2-10; linker N-14 via Adipoyl) ; value = 13
